Taken from PubChem BioAssay AID400.

target: UniProtKB P54829; test: inhibition of STEP tyrosine phosphatase activity – biochemical, human, DiFMUP fluorescence (AID 400); conditions: recombinant PTPN5, DiFMUP fluorescence phosphatase assay; at 50 µM; enzyme 6.5 ng/mL; DTT 5 mM; hits give high values
Sequence (P54829 whole entry, looked up): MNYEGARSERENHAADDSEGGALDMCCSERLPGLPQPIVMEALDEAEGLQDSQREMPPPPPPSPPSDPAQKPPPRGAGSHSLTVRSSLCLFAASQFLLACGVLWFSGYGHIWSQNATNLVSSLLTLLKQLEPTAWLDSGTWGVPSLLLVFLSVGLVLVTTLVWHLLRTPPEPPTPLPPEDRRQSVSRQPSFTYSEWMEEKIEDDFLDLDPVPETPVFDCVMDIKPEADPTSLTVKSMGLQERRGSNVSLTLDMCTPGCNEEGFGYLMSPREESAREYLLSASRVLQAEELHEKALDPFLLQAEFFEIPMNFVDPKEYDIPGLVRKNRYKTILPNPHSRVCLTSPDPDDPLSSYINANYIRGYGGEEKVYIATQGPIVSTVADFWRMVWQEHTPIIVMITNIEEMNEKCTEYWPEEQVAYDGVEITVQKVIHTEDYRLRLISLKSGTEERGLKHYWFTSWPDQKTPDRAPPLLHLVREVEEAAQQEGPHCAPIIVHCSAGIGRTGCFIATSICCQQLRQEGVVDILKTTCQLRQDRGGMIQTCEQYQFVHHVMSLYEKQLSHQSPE
MEASURED_QUANTITY: inhibition (%)

Some entries whose results are on file:
[
  {
    "COMPOUND": "Oc1c(Cl)c(Cl)c(O)c2nsnc12",
    "SYSTEM_TESTED": "UniProtKB P54829",
    "inhibition / %": 33
  },
  {
    "COMPOUND": "O=C1NC(=S)S/C1=C\\C=C\\c1ccc([N+](=O)[O-])o1",
    "SYSTEM_TESTED": "UniProtKB P54829",
    "inhibition / %": 88
  },
  {
    "COMPOUND": "COc1cc[n+](C(=O)N(C)C)cc1",
    "SYSTEM_TESTED": "UniProtKB P54829",
    "inhibition / %": 14
  }
]

a. NC1=NC(=O)/C(=C/C=C/c2ccc([N+](=O)[O-])o2)S1
b. CC1(C)OC(=O)C(=Cc2ccc(Br)o2)C(=O)O1
c. O=C(O)C1Nc2c(O)cccc2C2C=CCC12 (configuration not stated)
d. CC(=O)c1ccc2c(c1)C1C=CCC1C(C(=O)O)N2 (configuration not stated)
Prompt line: Order the records so the highest inhibition appears first and the lowest last. When ranking, write the labels in the order the request describes.
Response line: a, d, c, b
